# Tested on: Hs-578T
# method-description: NCI tumour cell line growth inhibition, 48 h
Active and inactive are the calls of the source. Cut-off read from the data, not from the text of the source: active = GI50 up to about 1.1 µM and inactive = higher.
assay-metric: GI50

# molecule, study-target, assay-metric, value-measured
rows = [
    ("CCC(CCC(C)C1CCC2C3CC=C4CC(OC5OC(CO)C(O)C(O)C5O)CCC4(C)C3CCC12C)C(C)C (centres undefined)", "Hs-578T", "GI50", "> 100 µM (inactive)"),
    ("C1CSC(Sc2nc(SC3=NCCS3)nc(SC3=NCCS3)n2)=N1", "Hs-578T", "GI50", "> 100 µM (inactive)"),
    ("Cc1nc2ccccc2c(=O)n1NC(=O)c1ccccn1", "Hs-578T", "GI50", "> 100 µM (inactive)"),
    ("Cc1occc1/C(S)=N\\c1ccc(Cl)c(C(=O)OCC(F)(F)F)c1", "Hs-578T", "GI50", "35.6 µM (inactive)"),
    ("O=[N+]([O-])c1ccc(-c2nn3c(C45CC6CC(CC(C6)C4)C5)nnc3s2)c(Cl)c1", "Hs-578T", "GI50", "> 100 µM (inactive)"),
    ("CCOC(=O)/C=C/C(=O)O/C=C/[N+](=O)[O-]", "Hs-578T", "GI50", "> 100 µM (inactive)"),
    ("CCOC(=O)NC(C(F)(F)F)(C(F)(F)F)P(=O)(OCC(C)C)OCC(C)C", "Hs-578T", "GI50", "14.9 µM (inactive)"),
    ("O=C1Nc2c(Cl)cc(Cl)cc2/C1=N/N=C/c1ccccc1O", "Hs-578T", "GI50", "26.5 µM (inactive)"),
    ("COc1cccc(-c2c(-c3ccccc3)[nH]c(C)c2C(=O)ONC(=O)c2ccccc2)c1", "Hs-578T", "GI50", "4.95 µM (inactive)"),
    ("O=C1c2c(Br)sc(Br)c2C(=O)C1(O)O", "Hs-578T", "GI50", "> 100 µM (inactive)"),
    ("O=C(O)CCNc1ccccc1C(=O)O", "Hs-578T", "GI50", "> 100 µM (inactive)"),
    ("COC1C(O)CC(OC2CC(OC3CC(O[C@@H]4C(=O)c5c(cc6cc(OC7CC(OC8CC(O)C(O)C(C)O8)C(O)C(C)O7)c(C)c(O)c6c5O)C[C@H]4[C@H](OC)C(=O)[C@@H](O)[C@@H](C)O)OC(C)C3O)OC(C)C2O)OC1C (some centres undefined)", "Hs-578T", "GI50", "< 0.01 µM (active)"),
    ("CCOC(=O)c1nc(SC)sc1NC(=O)c1ccc(OC)cc1", "Hs-578T", "GI50", "> 100 µM (inactive)"),
    ("CC(C)C(C/C=C1/CC(CO)(COC(=O)c2ccccc2)OC1=O)C(C)C (centres undefined)", "Hs-578T", "GI50", "7.43 µM (inactive)"),
    ("CC(=O)O/C=C\\OC1CCCC1", "Hs-578T", "GI50", "> 100 µM (inactive)"),
    ("COc1ccc(C(NS(=O)(=O)c2ccc(C)cc2)c2c(C(CBr)OC)c3ccccc3n2S(=O)(=O)c2ccccc2)cc1OC (centres undefined)", "Hs-578T", "GI50", "> 100 µM (inactive)"),
    ("COC(=O)CC[N+]1=CCC(c2ccccc2)(c2ccccc2)O1", "Hs-578T", "GI50", "> 100 µM (inactive)"),
    ("NCC1CCN(c2nc3ccccc3c3c2CCCC3)CC1", "Hs-578T", "GI50", "20.1 µM (inactive)"),
    ("CN(C)c1n2c3cc([N+](=O)[O-])ccc3[n+]3c(N(C)C)n4ccccc4c3c2c2cccc[n+]12.[O-][Cl+3]([O-])([O-])[O-].[O-][Cl+3]([O-])([O-])[O-]", "Hs-578T", "GI50", "29.9 µM (inactive)"),
]

The measured values listed here are drawn from ChEMBL document CHEMBL1201862.
